Each entry below lists one item and its recorded OD450 nm value.
# TEST_TARGET: T1, biotinylated hBLyS-ECD (human, UniProt Q9Y275 134-285, biotinylated with Biotin-X-X-NHS (molar ratio 7:1); sites not stated)
# T1 construct: also called biotinylated immunogen; biotinylated hBLvS-ECD
# T1 sequence (Q9Y275 134-285): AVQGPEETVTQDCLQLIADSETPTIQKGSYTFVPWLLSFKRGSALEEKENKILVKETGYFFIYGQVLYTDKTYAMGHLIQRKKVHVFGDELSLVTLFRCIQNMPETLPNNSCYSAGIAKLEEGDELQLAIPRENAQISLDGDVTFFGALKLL
# ASSAY_NAME: ELISA on captured biotinylated hBLyS-ECD; antibody 13.3 nM
Give your result in OD450 nm as a bare value.

The following binders have reported results that may help.
binder="c111D10D6G3 (antibody, V domains shown) VH: QVQLQQPGAELVKPGASVKMSCKASGYTFTRHWITWVKQRPGQGLEWIGDIFPGSGSINYNEKFKSEATLTVEKSSSTAYMQLSSLTSEDSAVYYCARGDVDVWGTGTTVTVSS VL: DIQMTQSPSSLSASLGERVSLTCRASQEIRGYLSWLQQKPNGTIKRLIYAASTLDSGVPKRFSATRSGSDFSLTISSLESEDFADYYCLQYASYPFTFGSGTKLEIK" unit_abbreviation="OD450 nm" experimental_result=3.39
binder="c8E7D9C7F5 (antibody, V domains shown, also called chimeric antibody c8E7D9C7F5) VH: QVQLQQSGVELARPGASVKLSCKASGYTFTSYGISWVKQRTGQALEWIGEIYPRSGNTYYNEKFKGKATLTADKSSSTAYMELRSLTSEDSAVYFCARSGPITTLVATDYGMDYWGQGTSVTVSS VL: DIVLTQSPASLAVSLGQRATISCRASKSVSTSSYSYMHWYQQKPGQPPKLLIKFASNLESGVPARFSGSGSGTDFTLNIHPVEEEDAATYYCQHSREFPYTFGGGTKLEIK" unit_abbreviation="OD450 nm" experimental_result=3.32

Now look at this entry.
OD450 nm measured on c97A3C2H4 (antibody, V domains shown, also called chimeric antibody c97A3C2H4) VH: EVKLVESGGGLVQPGGSLKLSCAASGFTFSTYTMSWVRQTPEKRLEWVAYISYGGGSTSYPDTVKGRFTISRDNAKNTLYLQMSSLKSEDTAIYYCTRHVTVVENSMDYWGQGTSVTVSS VL: DILLTQSPDILSVSPGERVSFSCRASQSIGTSIHWYQQRTNGSPRLLIKYVSESFSGTPSRFSGSGSGTAFTLTINSVESEDIADYYCQQTHSWPWTFGGGTKLEIK = 3.33
